method description: chemical genetic growth profiling, strain panel (AID 1159580);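 note: tested at 20 µM; growth read once vehicle control cultures reached saturation at 30 °C; 1 = growth at the plate median or of vehicle wells; lower values mean less growth of the strain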
conditions: S. cerevisiae deletion strains, growth OD, locus YNL067W, strain RPL9B, hits give low values
Hit rate of the full screen: of about 5,500 compounds, about 2,000 (36%) were called active. About 18% were inconclusive and are not listed. Some of the results follow.
assay endpoint: normalized growth
Please state the value as a number alone, without comment.

Using the record for O=C(O)c1ccc(S(=O)(=O)N(Cl)Cl)cc1 , report its normalized growth.
1

Continuing:
Using the record for C[n+]1ccccc1/C=N/O , report its normalized growth.
1

Again, but for O=C(NCO)c1cccnc1
0.995

Again, but for CCCSc1ccc2nc(NC(=O)OC)[nH]c2c1
0.942

Again, but for CO[C@H]1CC(O[C@@H]2/C(C)=C/C[C@@H]3C[C@@H](C[C@]4(CC[C@H](C)[C@@H](C5CCCCC5)O4)O3)OC(=O)[C@@H]3C=C(C)/C(=N\O)[C@H]4OC/C(=C\C=C\[C@@H]2C)[C@]43O)O[C@@H](C)C1O (stereo not given in full)
0.988

Again, but for O=C(O)c1cc(O)c2c(c1)[C@@H]([C@H]1c3cc(C(=O)O)cc(O)c3C(=O)c3c(O[C@H]4O[C@H](CO)[C@@H](O)[C@H](O)[C@H]4O)cccc31)c1cccc(O[C@H]3O[C@H](CO)[C@@H](O)[C@H](O)[C@H]3O)c1C2=O
1.01

Again, but for CCN(CC)CCOC(=O)C1(C2CCCCC2)CCCCC1
0.979

Again, but for Oc1c(Cl)cc(Cl)cc1Sc1cc(Cl)cc(Cl)c1O
0.941

Again, but for CS(=O)(=O)Nc1ccc([N+](=O)[O-])cc1Oc1ccccc1
0.953

====

method description: chemical genetic growth profiling, strain panel (AID 1159580);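 note: tested at 20 µM; growth read once vehicle control cultures reached saturation at 30 °C; 1 = growth at the plate median or of vehicle wells; lower values mean less growth of the strain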
conditions: S. cerevisiae deletion strains, growth OD, locus YHR200W, strain rpn10, hits give low values
Hit rate of the full screen: of about 5,500 compounds, about 2,000 (36%) were called active. Roughly 18% stayed inconclusive and do not appear here. The list shows a part of the results.
assay endpoint: normalized growth
Please state the value as a number alone, without comment.

Using the record for CC(=O)Oc1ccc(O)cc1 , report its normalized growth.
1.03

Again, but for CS(=O)(=O)Nc1ccc([N+](=O)[O-])cc1Oc1ccccc1
0.972

Again, but for CC(=O)c1ccc(O)c(CC=C(C)C)c1
0.971

Again, but for CC(C)CCCC(C)[C@H]1CCC2C3CC=C4C[C@@H](O)CC[C@]4(C)C3CC[C@@]21C (stereo partly drawn)
0.995

Again, but for CC(C)CC(NC(=O)OCC1c2ccccc2-c2ccccc21)C(=O)O (stereo not drawn)
1.01

Again, but for C=C(C)C1CCC(C)(O)C2CC3OC3(C)C2C1 (stereo not drawn)
1.01

Again, but for CC(C)CCCC(C)C1CCC2C3CC[C@H]4C[C@@H](O)CC[C@]4(C)C3CC[C@]12C (stereo partly drawn)
1.01

Again, but for N[C@@H](CCC(=O)N[C@@H](CS)C(=O)NCC(=O)O)C(=O)O
0.981

Continuing:
Using the record for CCN1CCN(C(=O)NC(C(=O)N[C@@H]2C(=O)N3[C@@H]2SC(C)(C)[C@@H]3C(=O)O)c2ccccc2)C(=O)C1=O (stereo partly drawn) , report its normalized growth.
1.01

Again, but for CC(CCC(=O)O)[C@H]1CCC2C3CC[C@@H]4CC(=O)CC[C@]4(C)C3C=C[C@@]21C (stereo partly drawn)
1.03
